Biological target: CYP2D6 (Homo sapiens, UniProt P10635)
Sequence (P10635 whole entry): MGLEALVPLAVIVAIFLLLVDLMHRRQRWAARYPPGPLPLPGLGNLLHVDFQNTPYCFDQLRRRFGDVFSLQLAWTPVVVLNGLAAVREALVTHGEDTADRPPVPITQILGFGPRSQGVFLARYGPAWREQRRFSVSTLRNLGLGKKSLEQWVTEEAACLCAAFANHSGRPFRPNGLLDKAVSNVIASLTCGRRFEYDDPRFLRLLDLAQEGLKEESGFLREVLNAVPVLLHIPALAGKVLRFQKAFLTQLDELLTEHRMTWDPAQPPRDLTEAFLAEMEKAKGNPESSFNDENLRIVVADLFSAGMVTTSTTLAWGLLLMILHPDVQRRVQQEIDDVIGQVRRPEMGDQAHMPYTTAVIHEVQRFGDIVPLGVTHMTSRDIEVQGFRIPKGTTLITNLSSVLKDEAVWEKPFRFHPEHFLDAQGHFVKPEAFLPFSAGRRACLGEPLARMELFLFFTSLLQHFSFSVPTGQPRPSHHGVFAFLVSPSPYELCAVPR
Assay: Example 2 phase 1 drug-drug interaction study, rivoceranib 700 mg QD + 5+1 cocktail: dextromethorphan probe
Conditions: human, in vivo, po, AUC(0-t), Mean (CV %), 5 + 1 cocktail alone, healthy volunteers, single oral 5+1 cocktail dose day 1, fasted

{"compound": "COc1ccc2c(c1)[C@]13CCCC[C@@H]1[C@H](C2)N(C)CC3 [dextromethorphan]", "unit-of-measurement": "ng·h/mL", "AUC(0-t)": 10.4}
{"compound": "CN1CC[C@@]23CCCC[C@@H]2[C@@H]1Cc1ccc(O)cc13 [dextrorphan]", "unit-of-measurement": "ng·h/mL", "AUC(0-t)": 26.1}

====

Molecular target: CYP1A2 (Homo sapiens)
Test: Example 2 phase 1 drug-drug interaction study, rivoceranib 700 mg QD + 5+1 cocktail: caffeine probe
Settings: human, in vivo, oral, probe caffeine, AUC(0-t), Geometric LSM, Rivoceranib plus 5 + 1 cocktail, healthy volunteers, 5+1 cocktail day 11 + rivoceranib 700 mg QD days 6-15

{"molecule": "Cn1c(=O)c2c(ncn2C)n(C)c1=O [caffeine]", "subject-of-test": "CYP1A2 (Homo sapiens)", "unit-of-measurement": "µg·h/mL", "AUC(0-t)": 43.2}

====

Molecular target: CYP1A2 (Homo sapiens, UniProt P05177)
Sequence (P05177 whole entry): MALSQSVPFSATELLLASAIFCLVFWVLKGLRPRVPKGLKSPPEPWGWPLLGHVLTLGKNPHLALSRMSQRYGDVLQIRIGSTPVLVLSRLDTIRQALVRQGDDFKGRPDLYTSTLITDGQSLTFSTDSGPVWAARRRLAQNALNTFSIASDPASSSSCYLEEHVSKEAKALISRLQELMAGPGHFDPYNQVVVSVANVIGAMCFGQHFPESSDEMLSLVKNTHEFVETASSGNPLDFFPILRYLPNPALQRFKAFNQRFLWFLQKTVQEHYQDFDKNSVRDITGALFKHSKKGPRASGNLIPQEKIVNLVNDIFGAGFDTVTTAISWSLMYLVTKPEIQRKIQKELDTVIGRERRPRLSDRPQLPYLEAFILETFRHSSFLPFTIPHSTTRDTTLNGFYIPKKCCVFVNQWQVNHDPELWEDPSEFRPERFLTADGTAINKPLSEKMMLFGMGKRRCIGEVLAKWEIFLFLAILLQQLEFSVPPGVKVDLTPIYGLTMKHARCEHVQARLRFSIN
Experiment: Example 2 phase 1 drug-drug interaction study, rivoceranib 700 mg QD + 5+1 cocktail: caffeine probe
Settings: human, in vivo, oral, probe caffeine, AUC(0-t), Mean (CV %), Rivoceranib plus 5 + 1 cocktail, healthy volunteers, 5+1 cocktail day 11 + rivoceranib 700 mg QD days 6-15
endpoint-name: AUC(0-t) (ng·h/mL)

{"smiles": "Cn1c(=O)c2c(ncn2C)n(C)c1=O", "reported-measurement": 44500}

====

Target: CYP1A2 (Homo sapiens)
Assay: Example 2 phase 1 drug-drug interaction study, rivoceranib 700 mg QD + 5+1 cocktail: caffeine probe
Conditions: human, in vivo, po, 200 mg, probe caffeine, AUC(0-t), Mean (CV %), 5 + 1 cocktail alone, healthy volunteers, single oral 5+1 cocktail dose day 1, fasted

{"smiles": "Cn1c(=O)c2c(ncn2C)n(C)c1=O", "unit-of-measurement": "ng·h/mL", "AUC(0-t)": 52600}

====

Test system: CYP3A
Assay: Example 2 phase 1 drug-drug interaction study, rivoceranib 700 mg QD + 5+1 cocktail: midazolam probe
Conditions: human, in vivo, po, 2 mg, AUC(0-∞), Geometric LSM, 5 + 1 cocktail alone, healthy volunteers, single oral 5+1 cocktail dose day 1, fasted
endpoint-name: AUC(0-inf) (µg·h/mL)

{"molecule": "Cc1ncc2n1-c1ccc(Cl)cc1C(c1ccccc1F)=NC2 [midazolam]", "unit-of-measurement": "µg·h/mL", "reported-measurement": 0.0297}

====

Test system: CYP3A
Assay: Example 2 phase 1 drug-drug interaction study, rivoceranib 700 mg QD + 5+1 cocktail: midazolam probe
Conditions: human, in vivo, po, 2 mg, Cmax, Mean (CV %), 5 + 1 cocktail alone, healthy volunteers, single oral 5+1 cocktail dose day 1, fasted
endpoint-name: Cmax

{"smiles": "Cc1ncc2n1-c1ccc(Cl)cc1C(c1ccccc1F)=NC2", "subject-of-test": "CYP3A", "reported-measurement": "10.8 ng/mL"}

====

Molecular target: CYP1A2 (Homo sapiens)
Test: Example 2 phase 1 drug-drug interaction study, rivoceranib 700 mg QD + 5+1 cocktail: caffeine probe
Conditions: human, in vivo, po, probe caffeine, Cmax, Geometric LSM, 5 + 1 cocktail alone, healthy volunteers, single oral 5+1 cocktail dose day 1, fasted

{"compound": "Cn1c(=O)c2c(ncn2C)n(C)c1=O [caffeine]", "unit-of-measurement": "ng/mL", "Cmax": 5190}
